# Assay summary: physchem
# Reported conditions: octanol/water
Here the recorded logD is given for each entry.
Number only, please.

Would you please look over these solved cases?
O=C(c1ccccc1-c1ccc(OCCCN2CCCCC2)cc1)N1CCCCC1	3.2
Fc1ncccc1-c1cc2sc(N3CCC(N4CCCCC4)CC3)nc2cn1	1.7
COc1cccc2nc(-c3ccc(OC4CCN(C5CCC5)CC4)cc3)n(C)c(=O)c12	2.2
c1cc(N2CCCCC2)ccc1OCCCN1CCCCC1	1.7
CC(C)N1CCN(C(=O)N2Cc3ccccc3C2)CC1	0.7

**Query** # query: logD of entry CC(C)N1CCN(C(=O)N2CCC(Cc3ccccc3)CC2)CC1
**Result** 2

**Query** Moving on to the next compound: c1ccc(-c2ccc(OCCCN3CCCCC3)cc2)cc1
**Result** 2.9

**Query** Moving on to the next compound: O=c1c2ccccc2nc(-c2ccc(OCCCN3CCCCC3)cc2)n1Cc1ccccc1
**Result** 3.8
